- ASSAY COMMENT: in vitro
- RECORDED CONDITIONS: human, liver microsomes
METRIC NAME: microsomal CLint (µL/min/mg)

Example entries and their recorded answers appear below.
GIVEN SMILES	microsomal CLint, µL/min/mg
O=C(NC[C@@H](O)CN1CCC(Oc2ccc(Cl)c(Cl)c2)CC1)c1c[nH]nc1C1CC1	9
CNS(=O)(=O)c1ccc2c(C(=O)NC[C@@H](O)CN3CCC(Oc4ccc(Cl)c(Cl)c4)CC3)c[nH]c(=O)c2c1	14
NC(=O)c1c(OC2CCN(C[C@H](O)CNC(=O)c3c[nH]c(=O)c4ccccc34)CC2)ccc(Cl)c1Cl	18

A. N#Cc1ccc(OC2CCN(C[C@H](O)CNC(=O)c3c[nH]c(=O)c4ccccc34)CC2)cc1
B. Cc1cc(Cl)ccc1OC1CCN(C[C@H](O)CNC(=O)c2c[nH]c(=O)c3ccc(S(C)(=O)=O)cc23)CC1
Which value of microsomal CLint is greater, the one for A or the one for B ? Please indicate the selected item by its label.
A
